Origin of values: paper PMC6321638

Biological target: T1, His-SOUL^WT (wild-type SOUL fused to His-tag) (mouse, UniProt Q9WU63 1-205)
T1 construct: Cloned into the Nde I and Sal I sites of pET28a(+); this probably gives an N-terminal His-tag with a thrombin site (surmised); Dimer by gel filtration; also called mSOUL; source: E. coli BL21(DE3) with pGroESL, purified (Ni-NTA-agarose, Sephadex G-25)
T1 sequence (looked up): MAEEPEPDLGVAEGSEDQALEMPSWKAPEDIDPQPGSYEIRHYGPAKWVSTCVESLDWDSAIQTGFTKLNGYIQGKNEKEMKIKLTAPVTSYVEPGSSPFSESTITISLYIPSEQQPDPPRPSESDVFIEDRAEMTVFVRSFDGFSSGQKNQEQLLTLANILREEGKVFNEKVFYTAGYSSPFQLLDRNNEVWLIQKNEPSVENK
Experiment: pull-down; GST-pulldown: purified His-SOUL (5 µM) and GST-ALG-2 (5 µM) with Glutathione Sepharose 4B in buffer B (100 mM Tris-HCl pH 7.5, 100 mM NaCl, 10% glycerol) with 20 µM CaCl2 (or various amounts of Ca2+), 30 min at 4 °C; SDS-PAGE, Coomassie
Conditions: both partners purified
readout: binding result

| binder | result |
| --- | --- |
| GST-ALG-2^WT (wild-type ALG-2 fused to GST-tag) (natural protein, mouse, UniProt P12815 1-191, looked up, ALG-2 (apoptosis-linked gene 2, PDCD6), murine, 1-191 amino acids; Cloned into the BamH I and Sal I sites of pGEX-4T-2; GST is probably N-terminal (surmised); also called apoptosis-linked gene 2 protein; PDCD6; source: E. coli BL21-CodonPlus(DE3)-(RIPL), purified (ammonium sulfate, Glutathione Sepharose, Sephadex G-25)) MAAYSYRPGPGGGPGPAAGAALPDQSFLWNVFQRVDKDRSGVISDNELQQALSNGTWTPFNPVTVRSIISMFDRENKAGVNFSEFTGVWKYITDWQNVFRTYDRDNSGMIDKNELKQALSGFGYRLSDQFHDILIRKFDRQGRGQIAFDDFIQGCIVLQRLTDIFRRYDTDQDGWIQVSYEQYLSMVFSIV | binds |
| GST-ALG-2 F85A (natural protein, mouse, UniProt P12815 1-191, looked up, ALG-2 (PDCD6), murine, 1-191 amino acids with F85A (pocket 3); source: E. coli, purified (as GST-ALG-2)) MAAYSYRPGPGGGPGPAAGAALPDQSFLWNVFQRVDKDRSGVISDNELQQALSNGTWTPFNPVTVRSIISMFDRENKAGVNFSEATGVWKYITDWQNVFRTYDRDNSGMIDKNELKQALSGFGYRLSDQFHDILIRKFDRQGRGQIAFDDFIQGCIVLQRLTDIFRRYDTDQDGWIQVSYEQYLSMVFSIV | binds |
| GST-ALG-2 I92A (natural protein, mouse, UniProt P12815 1-191, looked up, ALG-2 (PDCD6), murine, 1-191 amino acids with I92A (pocket 3); source: E. coli, purified (as GST-ALG-2)) MAAYSYRPGPGGGPGPAAGAALPDQSFLWNVFQRVDKDRSGVISDNELQQALSNGTWTPFNPVTVRSIISMFDRENKAGVNFSEFTGVWKYATDWQNVFRTYDRDNSGMIDKNELKQALSGFGYRLSDQFHDILIRKFDRQGRGQIAFDDFIQGCIVLQRLTDIFRRYDTDQDGWIQVSYEQYLSMVFSIV | binds |
